Tested on: NCI-H441
Experiment: relative viability (nuclei count vs DMSO), 5 days (fraction); higher = more cells survive
Conditions: first compound 0.0002 µM
Reported relative viability values follow for various molecules
Answer with a number only.

# molecule, value type, readout number
records = [
    ("CC(=O)O[C@@]12CO[C@@H]1C[C@H](O)[C@@]1(C)C(=O)[C@H](O)C3=C(C)[C@@H](OC(=O)[C@H](O)[C@@H](NC(=O)OC(C)(C)C)c4ccccc4)C[C@@](O)([C@@H](OC(=O)c4ccccc4)[C@H]21)C3(C)C [Docetaxel] + CCNC(=O)c1noc(-c2cc(C(C)C)c(O)cc2O)c1-c1ccc(CN2CCOCC2)cc1 [Luminespib] (partner 0.01 µM)", "relative viability", 0.294),
]

Continue with the next molecule.
(Q) Item CC(=O)O[C@@]12CO[C@@H]1C[C@H](O)[C@@]1(C)C(=O)[C@H](O)C3=C(C)[C@@H](OC(=O)[C@H](O)[C@@H](NC(=O)OC(C)(C)C)c4ccccc4)C[C@@](O)([C@@H](OC(=O)c4ccccc4)[C@H]21)C3(C)C [Docetaxel] + C[C@@H](Oc1cc(-c2cnn(C3CCNCC3)c2)cnc1N)c1c(Cl)ccc(F)c1Cl [Crizotinib] (partner 1 µM) has what recorded relative viability?
(A) 0.802
